# target-entity: rhCRTh2 (Homo sapiens, UniProt Q9Y5Y4)
# Construct: expressed in transfected cells; host or cells: HEK cells (membrane preparation)
# Sequence (Q9Y5Y4 1-395): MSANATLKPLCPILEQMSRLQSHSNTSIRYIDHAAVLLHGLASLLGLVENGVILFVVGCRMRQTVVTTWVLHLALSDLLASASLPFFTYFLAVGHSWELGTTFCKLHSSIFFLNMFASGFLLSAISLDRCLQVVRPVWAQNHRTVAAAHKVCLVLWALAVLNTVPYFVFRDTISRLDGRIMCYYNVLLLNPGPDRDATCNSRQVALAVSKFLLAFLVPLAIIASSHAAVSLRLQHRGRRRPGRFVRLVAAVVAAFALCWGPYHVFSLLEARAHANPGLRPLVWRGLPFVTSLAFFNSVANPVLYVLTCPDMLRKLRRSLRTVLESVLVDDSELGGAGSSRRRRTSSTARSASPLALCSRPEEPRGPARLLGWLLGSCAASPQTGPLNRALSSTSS
# assay-text: Ligand Binding Assay ([3H]PGD2 SPA binding)
# run-conditions: [3H]PGD2 binding, membranes of HEK cells expressing rhCRTh2/Gα16, SPA beads, 2 hours room temperature; read-out: pIC50 value (converted)
measured-property: IC50

[
  {
    "molecule": "C[C@H]1CN(Cc2cc(Cl)ccc2OCC(=O)O)CCN1C(=O)Cc1cccc(F)c1",
    "measured-property": "IC50",
    "endpoint-value": "15.8 nM"
  },
  {
    "molecule": "O=C(O)COc1ccc(C(F)(F)F)cc1CN1CCN(C(=O)Cc2cccs2)CC1",
    "measured-property": "IC50",
    "endpoint-value": "132 nM"
  },
  {
    "molecule": "O=C(O)COc1ccc(C(F)(F)F)cc1CN1CCCN(S(=O)(=O)c2ccc(F)cc2)CC1",
    "measured-property": "IC50",
    "endpoint-value": "89.1 nM"
  },
  {
    "molecule": "CC1CN(Cc2cc(Cl)ccc2OCC(=O)O)CCN1S(=O)(=O)c1ccccc1 (stereo not shown)",
    "measured-property": "IC50",
    "endpoint-value": "5.01 nM"
  }
]

Cited source: patent US8524715B2
